Biological target: human chemokine receptor 2 isoform B (Homo sapiens, UniProt P41597)
Sequence (P41597 1-360 isoform P41597-2): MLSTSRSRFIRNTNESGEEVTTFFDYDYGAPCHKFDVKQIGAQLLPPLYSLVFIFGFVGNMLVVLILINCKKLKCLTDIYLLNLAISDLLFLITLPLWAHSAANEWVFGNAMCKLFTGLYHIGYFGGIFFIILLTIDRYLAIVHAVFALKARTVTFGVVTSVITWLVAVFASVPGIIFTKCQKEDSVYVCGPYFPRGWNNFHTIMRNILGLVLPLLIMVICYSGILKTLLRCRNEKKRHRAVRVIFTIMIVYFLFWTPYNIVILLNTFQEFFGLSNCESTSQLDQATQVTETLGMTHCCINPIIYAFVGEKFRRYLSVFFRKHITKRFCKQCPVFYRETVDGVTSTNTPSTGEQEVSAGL
Assay: Calcium mobilization assay (FLIPR, CHOK1-CCR2B-A5 cells, 20 nM MCP-1)
Settings: Ca mobilisation assay, CCR2, antagonist activity vs 20 nM MCP-1
measured.endpoint: IC50 (nM)

Previously resolved entries follow.
[
  {
    "compound": "CC(C)N1CCN(CCCN2CCN(C(=O)/C=C/c3ccc(Cl)c(Cl)c3)CCC2=O)CC1C (racemic) [Example 246]",
    "IC50 [nM]": 421
  },
  {
    "compound": "O=C(/C=C/c1ccc(Cl)c(Cl)c1)N1CCC(=O)N(CCCN2CCN(C3CC3)CC2)CC1 [Example 241]",
    "IC50 [nM]": 765
  },
  {
    "compound": "O=C(/C=C/c1ccc(Cl)c(Cl)c1)N1CCC(=O)N(CCC(O)CN2CCCC(O)C2)CC1 (racemic) [Example 171]",
    "IC50 [nM]": 995
  }
]

I = CC1CCN(CC(O)CCN2CCN(C(=O)/C=C/c3ccc(Cl)c(Cl)c3)CCC2=O)CC1O (racemic) [Example 359]
II = O=C(/C=C/c1ccc(Cl)c(Cl)c1)N1CCC(=O)N(CCCN2CCC[C@H](O)C2)CC1 [Example 92]
III = CN(CCCN1CCN(C(=O)/C=C/c2ccc(Cl)c(Cl)c2)CCC1=O)C1CCCCC1 [Example 39]
IV = C[C@@H]1C[C@H](O)CN(C[C@H](O)CCN2CCN(C(=O)/C=C/c3ccc(Cl)c(Cl)c3)CCC2=O)C1 [Example 503]
Order the records by IC50, with each subsequent value no larger than the one before. Returns: the labels arranged in the requested order. I, III, II, IV

====

Target: human chemokine receptor 2 isoform B (Homo sapiens, UniProt P41597)
Test: Calcium mobilization assay (FLIPR, CHOK1-CCR2B-A5 cells, 20 nM MCP-1)
Conditions: Ca mobilisation assay, CCR2, antagonist activity vs 20 nM MCP-1
Experimental: CHOK1-CCR2B-A5 cells (from Euroscreen) stably overexpressing the human chemokine receptor 2 isoform B were cultured in Nutrient Hams F12 medium supplemented with 5% FBS, 100 U/ml penicillin, 100 μg/ml streptomycin, 400 μg/ml G418 and 5 μg/ml puromycin. […] Test compounds were added to the assay plate and agonist activity was monitored as fluorescence for 80 seconds with a FLIPR (488 nm excitation; 510-570 nm emission; Molecular Devices). […]
measured.endpoint: IC50 (nM)

Previously resolved entries follow.
[
  {
    "compound": "O=C(/C=C/c1ccc(Cl)c(Cl)c1)N1CCC(=O)N(CCCN2CCC(O)(Cc3ccccc3)CC2)CC1 [Example 49]",
    "system.name": "human chemokine receptor 2 isoform B (Homo sapiens, UniProt P41597)",
    "u": "nM",
    "IC50": 510
  },
  {
    "compound": "C[N+]1(CCCN2CCN(C(=O)/C=C/c3ccc(Cl)c(Cl)c3)CCC2=O)CCC2(CC1)NC(=O)NC2=O (centres unmarked) [Example 153]",
    "system.name": "human chemokine receptor 2 isoform B (Homo sapiens, UniProt P41597)",
    "u": "nM",
    "IC50": 446
  },
  {
    "compound": "O=C(/C=C/c1ccc(Cl)c(Cl)c1)N1CCC(=O)N(CCCCN2CCN(C3CCCC3)CC2)CC1 [Example 438]",
    "system.name": "human chemokine receptor 2 isoform B (Homo sapiens, UniProt P41597)",
    "u": "nM",
    "IC50": 369
  },
  {
    "compound": "C[C@@H]1CCN(CC(O)CN2CCN(C(=O)/C=C/c3ccc(Cl)c(Cl)c3)CCC2=O)C[C@H]1O (mixture of isomers) [Example 315]",
    "system.name": "human chemokine receptor 2 isoform B (Homo sapiens, UniProt P41597)",
    "u": "nM",
    "IC50": 717
  },
  {
    "compound": "C[C@@H]1CN(CC(O)CN2CCN(C(=O)/C=C/c3ccc(Cl)c(Cl)c3)CCC2=O)CC[C@H]1O (mixture of isomers) [Example 316]",
    "system.name": "human chemokine receptor 2 isoform B (Homo sapiens, UniProt P41597)",
    "u": "nM",
    "IC50": 755
  },
  {
    "compound": "C[C@@H]1CCN(CCCCN2CCN(C(=O)/C=C/c3ccc(Cl)c(Cl)c3)CCC2=O)C[C@H]1O (racemic) [Example 454]",
    "system.name": "human chemokine receptor 2 isoform B (Homo sapiens, UniProt P41597)",
    "u": "nM",
    "IC50": 230
  },
  {
    "compound": "O=C(/C=C/c1cccc(Cl)c1)N1CCC(=O)N(CCN2CCC(c3ccc(F)cc3)CC2)CC1 [Example 33]",
    "system.name": "human chemokine receptor 2 isoform B (Homo sapiens, UniProt P41597)",
    "u": "nM",
    "IC50": 343
  },
  {
    "compound": "CC1(C)CCN(C[C@H](O)CCN2CCN(C(=O)/C=C/c3ccc(Cl)c(Cl)c3)CCC2=O)CC1O (some centres unmarked) [Example 501]",
    "system.name": "human chemokine receptor 2 isoform B (Homo sapiens, UniProt P41597)",
    "u": "nM",
    "IC50": 155
  }
]

P = CO[C@@H]1CN(CCCCN2CCN(C(=O)/C=C/c3ccc(Cl)c(Cl)c3)CCC2=O)CC[C@@H]1CO (racemic) [Example 472]
Q = CC1CC(O)CN(CCCCN2CCN(C(=O)C=Cc3ccc(Cl)c(F)c3)CCC2=O)C1 (mixture of isomers) [Example 421]
R = O=C(/C=C/c1ccc(F)c(Cl)c1)N1CCC(=O)N(CCCCN2CCCC(O)C2)CC1 (racemic) [Example 383]
S = O=C(/C=C/c1ccc(Cl)c(Cl)c1)N1CCC(=O)N(CCN[C@@H]2CCCC[C@H]2O)CC1 (racemic) [Example 355]
T = O=C(/C=C/c1ccc(Cl)cc1)N1CCC(=O)N(CCCN2CCC3(CC3)C(O)C2)CC1 (centres unmarked) [Example 498]
Order the records by IC50, with each subsequent value no larger than the one before. Returns: the labels arranged in the requested order. S, P, R, Q, T

====

Molecular target: human chemokine receptor 2 isoform B (Homo sapiens, UniProt P41597)
Experiment: Calcium mobilization assay (FLIPR, CHOK1-CCR2B-A5 cells, 20 nM MCP-1)
Conditions: Ca mobilisation assay, CCR2, antagonist activity vs 20 nM MCP-1
measured.endpoint: IC50 (nM)

Previously resolved entries follow.
[
  {
    "compound": "O=C(/C=C/c1ccc(Cl)c(Cl)c1)N1CCC(=O)N(CC(O)CN2CCCCC2)CC1 (racemic) [Example 166]",
    "measured.endpoint": "IC50",
    "value.measured": 212
  },
  {
    "compound": "O=C(/C=C/c1ccc(Cl)c(F)c1)N1CCC(=O)N(CCCN2CCC3(CC3)C(O)C2)CC1 (centres unmarked) [Example 493]",
    "measured.endpoint": "IC50",
    "value.measured": 15
  },
  {
    "compound": "O=C(/C=C/c1ccc(Cl)c(Cl)c1)N1CCC(=O)N(CCCN2CCC(O)(c3ccncc3)CC2)CC1 [Example 53]",
    "measured.endpoint": "IC50",
    "value.measured": 441
  }
]

P = CC1(CO)CCCCN1CCCN1CCN(C(=O)/C=C/c2ccc(Cl)c(Cl)c2)CCC1=O (racemic) [Example 250]
Q = O=C(/C=C/c1ccc(Cl)c(Cl)c1)N1CCC(=O)N(CCC(O)CN2CCCCC2)CC1 (racemic) [Example 170]
Higher IC50 between P and Q ? API: response body contains the label of the selected item. P

P = O=C(/C=C/c1ccc(Cl)c(Cl)c1)N1CCC(=O)N(CCCCN2CCCC(CO)C2)CC1 (racemic) [Example 425]
Q = O=C(/C=C/c1ccc(Cl)c(Cl)c1)N1CCC(=O)N(CCCN2CCC[C@H]2CO)CC1 [Example 47]
R = O=C(/C=C/c1ccc(F)c(Cl)c1)N1CCC(=O)N(CCCN2CCCCC2CO)CC1 (racemic) [Example 210]
Order the records by IC50, with each subsequent value no larger than the one before. Returns: the labels arranged in the requested order. R, Q, P
(R: 1140 nM, Q: 193 nM, P: 89 nM)

====

Target: human chemokine receptor 2 isoform B (Homo sapiens)
Experiment: Calcium mobilization assay (FLIPR, CHOK1-CCR2B-A5 cells, 20 nM MCP-1)
Settings: Ca mobilisation assay, CCR2, antagonist activity vs 20 nM MCP-1
Description: CHOK1-CCR2B-A5 cells (from Euroscreen) stably overexpressing the human chemokine receptor 2 isoform B were cultured in Nutrient Hams F12 medium supplemented with 5% FBS, 100 U/ml penicillin, 100 μg/ml streptomycin, 400 μg/ml G418 and 5 μg/ml puromycin. […] Test compounds were added to the assay plate and agonist activity was monitored as fluorescence for 80 seconds with a FLIPR (488 nm excitation; 510-570 nm emission; Molecular Devices). […]
Structures can show the parent of a compound that is named as a salt.
measured.endpoint: IC50 (nM)

Previously resolved entries follow.
[
  {
    "compound": "O=C(/C=C/c1ccc(F)c(Cl)c1)N1CCC(=O)N(CCCN2CCC3(CC3)C(O)C2)CC1 (stereo not shown) [Example 192]",
    "system.name": "human chemokine receptor 2 isoform B (Homo sapiens)",
    "u": "nM",
    "IC50": 15
  },
  {
    "compound": "O=C(/C=C/c1ccc(Cl)c(Cl)c1)N1CCC(=O)N(CCCCN2CC[C@@H](O)[C@H](O)C2)CC1 (racemic) [Example 164, hydrochloride]",
    "system.name": "human chemokine receptor 2 isoform B (Homo sapiens)",
    "u": "nM",
    "IC50": 544
  },
  {
    "compound": "C[C@H]1[C@H](O)CCCN1CC(O)CCN1CCN(C(=O)/C=C/c2ccc(Cl)c(Cl)c2)CCC1=O (relative stereo)",
    "system.name": "human chemokine receptor 2 isoform B (Homo sapiens)",
    "u": "nM",
    "IC50": 504
  }
]

a = O=C(C=Cc1ccc(Cl)c(Cl)c1)N1CCC(=O)N(CCCCN2CCC(O)C(F)C2)CC1 (mixture of isomers)
b = C[C@@H]1CN(CCCN2CCCCC2)C(=O)CCN1C(=O)/C=C/c1ccc(Cl)c(Cl)c1
Higher IC50 between a and b ? API: response body contains the label of the selected item. a
(a: 140 nM, b: 38 nM)

A = CC1CCC(O)CN1CCCCN1CCN(C(=O)/C=C/c2ccc(Cl)c(F)c2)CCC1=O (racemic)
B = C[C@@H]1C[C@H](O)CN(C[C@H](O)CN2CCN(C(=O)/C=C/c3ccc(F)c(Cl)c3)CCC2=O)C1 (mixture of isomers)
For the pair A and B , which member has the lower IC50 number? API: response body contains the label of the selected item. B
(B: 26 nM, A: 77 nM)
